Test system: UACC-257 melanoma
Assay: NCI-60 one-dose screen, 48 h
Settings: 10 µM unless noted
The panel holds about 83,000 compounds, 20% with a hit somewhere; the sample as a whole holds those more often. Active and inactive are the calls of the source. How the source made its calls: active means growth percent below 10; inactive means the rest.
Your answer must be one of the following: active, inactive

Consider the worked cases shown below.
CCOC(=O)c1c(C)c2c(n1Cc1ccccc1)CSc1cc(C#N)c(=O)[nH]c1-2; inactive
Nc1ncc(-c2ccc3ncnc(N4CCc5cc(F)c(Cl)cc54)c3c2)cc1C(F)(F)F; inactive
CCCC[N+]1(C)CCN=C1Cc1ccccc1 (stereo not drawn); inactive

Can you look up the reported call for COc1ccc(N/N=C/c2ccc3c(c2)Sc2ccccc2N3C)cc1 for me?
inactive

Which outcome was entered for the compound O=C1NCCS(=O)(=O)/C1=C\C=C\c1cccc(C(F)(F)F)c1 in this test?
inactive

For COc1ccc(C(=O)/C=C/c2ccc(C)cc2)cc1S(N)(=O)=O , what call appears in the results of this test?
inactive

Outcome? COc1cccc(-c2nn(-c3ccccc3)cc2-c2ccnc(-c3cccnc3)c2)c1
inactive

Lab log entry: CN1C(=O)N(C)C2C1NN=c1s/c(=C\c3ccc(F)cc3)c(=O)n12 (stereo not drawn) — outcome as called in the assay?
active

Tell me the recorded outcome of this test for O=C1CCC(C(=O)N/N=C/c2ccc([N+](=O)[O-])cc2)N1 (stereo not drawn) .
inactive

Any idea what this test logged for Cc1c(C(=O)C(SC(=S)N2CCOCC2)SC(=S)N2CCOCC2)nnn1-c1ccc([N+](=O)[O-])cc1 ?
inactive

Returns: the outcome recorded for O=C(Nc1cccc(Cn2c(=O)[nH]c3ccc(Oc4ncccn4)cc3c2=O)c1)c1cccc(Cl)c1 in this assay.
inactive

Give the logged outcome of this assay for the following compound: O=C(/C=C/c1ccc(Cl)cc1)c1ccc(-n2cc(CN3CCN(c4cc5c(cc4F)c(=O)c(C(=O)O)cn5C4CC4)CC3)nn2)cc1
inactive

Which result was noted for this compound in the test: O=C1c2ccccc2-c2c1c1ccncc1c(=O)n2CCCn1ccnc1
inactive

====

Reported growth is given for each of the following compounds.
System: SNB-75 CNS
Test: NCI-60 one-dose screen, 48 h (100 = growth as untreated, 0 = no growth, -100 = all killed)
Details: 10 µM unless noted
Compounds without any hit were thinned out: in the full panel of roughly 83,000, 20% have a hit.
Hi! Could you send only the number? It should be in %, unit omitted.

Query growth for C#Cc1c(I)n(C2OC(CO[Si](C)(C)C(C)(C)C)C3OC(C)(C)OC32)c(=O)[nH]c1=O (centres undefined)
86.8

====

Test system: SR leukemia
Assay: NCI-60 one-dose screen, 48 h (100 = growth as untreated, 0 = no growth, -100 = all killed)
Details: 10 µM unless noted
About 83,000 compounds went through this panel and 20% of them were active in at least one assay; those are over-represented in the sample as a whole.
Attribute Measured: growth (%)
Quick reminder: number only, in %, skip the unit.

C/C(=C(\c1ccc(OCCCN(C)C)cc1)c1ccc(OC(=O)Cc2ccccc2)cc1)c1ccc(Cl)cc1; -34.9

Please report the measured growth for Cc1nn(-c2ccccc2)c(Oc2ccccc2)c1/C=N/NC(=O)Cn1c(=O)sc2ccccc21
38.2

Tell me measured growth for C=CCn1c(SCC(=O)Nc2ccc(C(=O)/C=C/c3ccc(Cl)cc3)cc2)nnc1-c1ccc(Cl)c(Cl)c1 please.
57

Retrieve growth measured for COc1cccc2cc(N(C)c3nc(C)nc4c3CCC4)ccc12 and print it.
9.67

Report growth for CN1CCN(Cc2ccc(NC(=O)c3cncc(C#Cc4c(N)ncc5c(F)cccc45)c3)cc2C(F)(F)F)CC1
-49

Answer with the recorded growth for the compound listed here: COc1ccccc1-c1nc2ccc3[nH]ncc3c2c2c1CCCC2
29.1

Find the measured growth of FC(F)(F)c1cc(N2CCCCC2)nc(NCCCNc2ccnc3cc(Cl)ccc23)n1 and report it.
-4.99

Write down growth measured for item N#CSCc1cc(Cl)c(CSC#N)cc1Cl
10.8

Please look at this compound and report its growth: O=C(O)CCCN1C(=O)CSC1=S
103

Please give measured growth of the following entry: CN(C)c1ccc(Cc2cc(-c3ccccc3)nn(C/C(=N/O)c3ccccc3)c2=O)cc1
46.3

For the compound COc1cccc(/C=C/C(=O)/C=C(/C=C/c2cccc(OC)c2OC)OB(F)F)c1OC , give its reported growth.
15.2

For the compound Cc1ccccc1NC(=O)c1sc2nc3c(cc2c1N)CCCC3 , report growth.
14.3

Tell us which growth value is on record for Cc1nc2cccc(NCc3ccc(C(=O)NO)cc3)c2c(=O)n1-c1ccccc1
14.8

Complete the entry with growth for CCCCCCCCCCCCCCCCCCOc1ccccc1CC(=O)OCC[N+]1(C)CCCCC1
10

Return reported growth. Input compound: C=C1CC[C@@H]2[C@](C)(COC(C)=O)[C@H](OC(C)=O)CC[C@@]2(C)[C@@H]1CC(Nc1ccc(S(=O)(=O)Nc2nccc(C)n2)cc1)C1=CCOC1=O (stereo partly drawn)
0.793

Check the records and state growth for COc1cc2c(c(OC)c1OC)C(=O)CC(c1cccc(C(=O)Nc3ccc(Br)cc3)c1)O2 (stereo not drawn)
22.2

Fill in growth for record Cc1ccc(-c2nn(CC(=O)N3CCOCC3)c(N)c2C#N)cc1
99

Identify measured growth associated with COc1ccc(C(=O)/C=C/c2ccc(Cl)cc2)cc1S(N)(=O)=O
-10.3

Provide growth value for the following compound: O=c1[nH]c(CN2CCN(c3ccccc3)CC2)nc2c(Br)cc(Br)cc12
3.49

# return recorded growth for input COc1ccc(C(c2cc(OC)c(OC)c(OC)c2)n2cncn2)cc1O (stereo not drawn)
7.03

Please list growth recorded for the compound O=S(=O)(Nc1ccc(Br)cc1)c1ccc(-c2cnc(C3CC3)o2)cc1
12.7

Specify measured growth for C#C[C@]1(O)CC[C@H]2[C@@H]3CC=C4c5sc(-c6ccccc6)nc5CC[C@]4(C)[C@H]3CC[C@@]21C .
30.9

Return growth for the following compound: O=C(/C=C/c1ccco1)Nc1ncc(Cc2ccc(F)cc2)s1
16.1

Tell me growth reported for CC1(C)CC(=O)C2=C(C1)OC(C(=O)c1ccccc1)C2c1cccc(Oc2ccccc2)c1 (stereo not drawn)
26.2
